Compiled notes: published IC50 values involving MAGL (Homo sapiens, UniProt Q99685).

{"columns": ["STRUCTURE", "IC50"],
 "data": [
  ["O=C(c1ccc2c(-c3cccc(C(F)(F)F)c3)cccc2c1)N1CC(N[C@H]2CCN(C(=O)c3ccccc3)C2)C1", "< 0.005 µM"],
  ["CCCCCCCC/C=C\\CCCCCCCC(=O)N1CC(N2CCN(C(=O)c3nccs3)CC2)C1", "< 0.005 µM"],
  ["CS(=O)(=O)Nc1ccn(C(=O)N2CCC3(CCCN3Cc3ccc(C(F)(F)F)cc3Cl)CC2)n1", "≤ 0.1 µM"]
]}

Next:
(Q) Input `Cc1cc2nc(C(=O)N3CC(N4CCN(C(=O)c5ccc[nH]5)CC4)C3)cn2cc1Br` , output reported IC50.
(A) > 16.7 µM

* * *

Kindly find below IC50 information for MAGL (Homo sapiens, UniProt Q99685) taken from the literature.

Answered examples (3):
{"columns": ["MOLECULE", "TESTED ON", "REPORTED VALUE"],
 "data": [
  ["O=C(CN1C(=O)c2ccccc2S1(=O)=O)N1CC(N2CCN(C(=O)c3nccs3)CC2)C1", "MAGL (Homo sapiens, UniProt Q99685)", "> 16700 nM"],
  ["COc1cc(C(=O)N2CC(N3CCN(C(=O)c4cscn4)CC3)C2)ccc1-c1ccc(Cl)c(C(F)(F)F)c1", "MAGL (Homo sapiens, UniProt Q99685)", "< 5 nM"],
  ["O=C(c1ccc2c(ccn2-c2ccc(C(F)(F)F)cc2)c1)N1CCN(C2CN(C(=O)c3cscn3)C2)CC1", "MAGL (Homo sapiens, UniProt Q99685)", "< 5 nM"]
]}

(Q) Give IC50 only, for CC(=O)N1CC2CN(c3cc(CN4CCN(C(=O)n5ccc(NS(C)(=O)=O)n5)CC4)ccc3Cl)CC2C1 (stereo not drawn) , using MAGL (Homo sapiens, UniProt Q99685) data.
(A) 100 to 1000 nM

(Q) Determine reported IC50 for `Cc1c(C(=O)N2CC(N[C@H]3CCN(C(=O)c4nccs4)C3)C2)sc2ccc(-c3ccccc3)cc12` ; test system: MAGL (Homo sapiens, UniProt Q99685).
(A) < 5 nM

(Q) System MAGL (Homo sapiens, UniProt Q99685). Read-out IC50. Item `O=C(Nc1ccc(OC(F)(F)F)cc1)N[C@H]1CC[C@H](Oc2ccc(C(=O)OCc3ccccc3)cc2)CC1` . Report value.
(A) > 10000 nM

* * *

Values of pIC50 for UniProt:Q99685, collected from a number of published sources:
Scale: negative log10 of molar concentration, which is what pIC50 denotes.

Study these solved cases before continuing.
{"columns": ["STRUCTURE", "pIC50"],
 "data": [
  ["O=C1CO[C@H]2CCN(C(=O)N3CC(C#Cc4ccccc4Br)C3)C[C@H]2N1", 8.15],
  ["O=C1CO[C@H]2CCN(C(=O)N3CCC(c4ccc(-c5ccc(Cl)cc5Cl)cc4)CC3)C[C@H]2N1", 8.40],
  ["O=C(c1nccs1)N1CC[C@H](NC2CN(C(=O)c3ccc4c(ccn4-c4ccc(F)cc4)c3Cl)C2)C1", 7.85],
  ["O=C(c1ccc2c(c1)CCN2Cc1ccccc1)N1CC(N2CCN(C(=O)c3nccs3)CC2)C1", 7.89],
  ["O=C(c1ccc(OCc2ccc3ccccc3n2)cc1)N1CC(N2CCN(C(=O)C(F)(F)F)CC2)C1", 7.72],
  ["Cc1nc2cc(C(=O)N3CC(N4CCN(C(=O)c5cscn5)CC4)C3)ccc2n1CCC(F)(F)F", 4.99],
  ["O=C1CO[C@H]2CCN(C(=O)N3CC(Oc4ccc(C(F)(F)F)c(N5CC6(C5)CC(F)(F)C6)c4)C3)C[C@H]2N1", 7.62],
  ["O=C1CO[C@H]2CCN(C(=O)N3CC(SCc4ccc(C(F)(F)F)cc4F)C3)C[C@H]2N1", 8.15]
]}

(Q) Let me know recorded pIC50 for `Cc1c(Cc2ccc(C(F)(F)F)cc2)cccc1C(=O)N1CC(N2CCN(C(=O)c3ccns3)CC2)C1` , thanks.
(A) 6.59

(Q) Find the measured pIC50 of `Cc1ccc2c(C(F)(F)F)c(C(=O)N3CC(N4CCN(C(=O)c5cscn5)CC4)C3)sc2c1` and report it.
(A) 6.90

(Q) Provide only the value of recorded pIC50 for `COc1ccc2cc(C(=O)N3CC(N4CCN(C(=O)c5nccs5)CC4)C3)c(C)nc2c1`
(A) 5.19
